Experiment: in vivo
Conditions: Han Wistar, rat, iv, 3 mg/kg
Description: Clearance in Han Wistar rat at 10 mg/kg, po and 3 mg/kg, iv
Measured metric: clearance (mL/min/kg)

// below: answered molecules
Mol: C[C@H](Nc1ccc2ncn(-c3cc(C4CC4)[nH]n3)c2n1)c1ncc(F)cn1
Measured result: 39
--
Mol: Cc1cc(-n2cnc3ccc(N[C@@H](C)c4ncc(F)cn4)nc32)n[nH]1
Measured result: 45
--
Mol: CC(C)Oc1cc(-n2cnc3ccc(N[C@@H](CO)c4ccc(F)cn4)nc32)n[nH]1
Measured result: 46
--
Mol: COc1cc(Nc2nc3c(cc2F)ncn3[C@@H](CO)c2ccc(F)cn2)n[nH]1
Measured result: 33
--
Mol: CC(C)Oc1cc(Nc2nc3c(cc2F)ncn3[C@@H](CO)c2ccc(F)cn2)n[nH]1
Measured result: 51

[1] CC(C)Oc1cc(-n2cnc3ccc(N[C@@H](C)c4ccc(F)cn4)nc32)n[nH]1
[2] CC(C)Oc1cc(-n2cnc3cnc(N[C@@H](C)c4ncc(F)cn4)nc32)n[nH]1
// returns 1 or 2 , whichever has the lower clearance Respond with the label that goes with your answer.
1
